List of Approximate Solubility (mg/mL) in Excipient: Sesame oil values.
Conditions: Sesame oil; heating temp. 60 °C, obs. temp. 25 °C

Solved cases below.
# compound, value
data = [
    ("C=C1CC[C@@]2(O)C3Cc4ccc(OCOC(=O)OCCCCCCCCCCCC)c5c4[C@@]2(CCN3CC2CC2)[C@H]1O5 [Compound 24]", "338 to 368 mg/mL"),
    ("CCCCCCCCCCCCOC(=O)Oc1ccc2c3c1O[C@H]1C(=O)CC[C@@]4(O)C(C2)N(CC2CC2)CC[C@]314 [Compound 11]", "<50 mg/mL"),
    ("CCCCCCCCCCCCCCCCCCCC(=O)Oc1ccc2c3c1O[C@H]1C(=O)CC[C@@]4(O)C(C2)N(CC2CC2)CC[C@]314 [Compound 50]", "<52 mg/mL"),
    ("C=C1CC[C@@]2(O)C3Cc4ccc(OCOC(=O)CCCCCCCCCCC)c5c4[C@@]2(CCN3CC2CC2)[C@H]1O5 [Compound 44]", "208 to 231 mg/mL"),
    ("CCCCCCCC/C=C/CCCCCCCC(=O)OCOc1ccc2c3c1O[C@H]1C(=O)CC[C@@]4(O)C(C2)N(CC2CC2)CC[C@]314 [Compound 26]", "<354 mg/mL"),
]

Requested field: Approximate Solubility (mg/mL) in Excipient: Sesame oil. Item: C=C1CC[C@@]2(O)C3Cc4ccc(OC(=O)CCCCCCC/C=C\C/C=C\CCCCC)c5c4[C@@]2(CCN3CC2CC2)[C@H]1O5 [Compound 37]
80 to 102 mg/mL

Requested field: Approximate Solubility (mg/mL) in Excipient: Sesame oil. Item: C=C1CC[C@@]2(O)C3Cc4ccc(OC(=O)OCCCCCCCCCCCCC)c5c4[C@@]2(CCN3CC2CC2)[C@H]1O5 [Compound 30]
252.55 to 398.6 mg/mL

Requested field: Approximate Solubility (mg/mL) in Excipient: Sesame oil. Item: CCCCCCCCCCCCOC(=O)OCOc1ccc2c3c1O[C@H]1C(=O)CC[C@@]4(O)C(C2)N(CC2CC2)CC[C@]314 [Compound 29]
>416.5 mg/mL

Requested field: Approximate Solubility (mg/mL) in Excipient: Sesame oil. Item: C=C1CC[C@@]2(O)C3Cc4ccc(OCOC(=O)CCCCCCCCCCCCCCC)c5c4[C@@]2(CCN3CC2CC2)[C@H]1O5 [Compound 46]
202 to 269 mg/mL

Requested field: Approximate Solubility (mg/mL) in Excipient: Sesame oil. Item: CCCCC/C=C\C/C=C\CCCCCCCC(=O)Oc1ccc2c3c1O[C@H]1C(=O)CC[C@@]4(O)C(C2)N(CC2CC2)CC[C@]314 [Compound 53]
>401.9 mg/mL

Requested field: Approximate Solubility (mg/mL) in Excipient: Sesame oil. Item: CCCCCCCCCCCCCCCCCC(=O)Oc1ccc2c3c1O[C@H]1C(=O)CC[C@@]4(O)C(C2)N(CC2CC2)CC[C@]314 [Compound 54]
<50 mg/mL

Requested field: Approximate Solubility (mg/mL) in Excipient: Sesame oil. Item: CCCCCCCC/C=C\CCCCCCCCCCCC(=O)Oc1ccc2c3c1O[C@H]1C(=O)CC[C@@]4(O)C(C2)N(CC2CC2)CC[C@]314 [Compound 22]
67 to 80 mg/mL

Requested field: Approximate Solubility (mg/mL) in Excipient: Sesame oil. Item: CCCCCCCCCCCCCCOC(=O)OCOc1ccc2c3c1O[C@H]1C(=O)CC[C@@]4(O)C(C2)N(CC2CC2)CC[C@]314 [Compound 27]
>399.2 mg/mL
